Run description: Population pharmacokinetic model of total plasma micafungin in patients
Assay type: in vivo, human
Condition context: human, plasma, iv, final two-compartment covariate population PK model; 31 patients, 100 or 150 mg once daily iv; read-out: Clearance, median (converted)
Starred links: 1 amine or outer side, 2 acyl side, 3 side chain; linkers in the order of their positions; H or OH if unused. Positions of bridges follow the written chain, without caps; N, C: chain ends. Non-standard residues stand in square brackets, D forms with d. Residues, ends and D or L forms follow the SMILES beside them. *: point of attachment. hTyr(3S-OH,4S-OH,3'-OSO3H) = N[C@H](C(=O)O)[C@H](O)[C@@H](O)c1ccc(O)c(OS(=O)(=O)O)c1; Orn(4R-OH,5R-OH) = O=C([C@H](C[C@@H](O)[C@@H](O)N[*:3])N[*:1])[*:2]; Pro(3S-OH,4S-Me) = C[C@H]1CN[C@H](C(=O)O)[C@H]1O; X1 = CCCCCOc1ccc(-c2cc(-c3ccc(C(=O)*)cc3)no2)cc1; Gln(3R-OH) = NC(=O)C[C@@H](O)[C@H](N)C(=O)O; Hyp = O=C(O)[C@@H]1C[C@@H](O)CN1
Readout: clearance (mL/min)
Just the number please, in mL/min, no unit attached.

For CCCCCOc1ccc(-c2cc(-c3ccc(C(=O)N[C@H]4C[C@@H](O)[C@@H](O)NC(=O)[C@@H]5[C@@H](O)[C@@H](C)CN5C(=O)[C@H]([C@H](O)CC(N)=O)NC(=O)[C@H]([C@H](O)[C@@H](O)c5ccc(O)c(OS(=O)(=O)O)c5)NC(=O)[C@@H]5C[C@@H](O)CN5C(=O)[C@H]([C@@H](C)O)NC4=O)cc3)no2)cc1 [micafungin] (X1-[Orn(4R-OH,5R-OH)]T[Hyp][hTyr(3S-OH,4S-OH,3'-OSO3H)][Gln(3R-OH)][Pro(3S-OH,4S-Me)]; lactam 1-C) , what is its reported clearance?
12.2
